Task for the reader: assign each of the following compounds its reported IC50.
- Tested on: Leishmania infantum MHOM/MA(BE)/67/ITMAP263 intracellular amastigotes
- EXPERIMENT DESCRIPTION: microbe, parasite or virus in culture
- CONDITION LABEL: Macrophage, in Mus musculus, read-out: L. Inf. pIC50, from L. infantum intracellular amastigote IC50 (converted)
One number for each entry, in µM.

Check out these entries, answers already filled in.
COMPOUND: COc1ccc(OC)c(S(=O)(=O)N(CCN2CCOCC2)Cc2ccccc2)c1
OBSERVED MEASUREMENT: 9.12
//
COMPOUND: NS(=O)(=O)c1cc2c(cc1Cl)NCN(Cc1ccccc1)S2(=O)=O
OBSERVED MEASUREMENT: 57.5

Please give IC50, item by item, for the list that follows.
1. CCC(Cc1ccccc1)[S+]([O-])c1nc(C)cc(C)c1C#N (stereo not drawn)
2. CCC(Cc1ccccc1)S(=O)(=O)c1nc(C)cc(C)c1C#N (stereo not drawn)
3. COc1ccc(CN(Cc2ccc(F)cc2)S(=O)(=O)c2cc(OC)ccc2OC)cc1
4. COc1ccc(OC)c(S(=O)(=O)N(Cc2ccc(F)cc2)Cc2oc(C)nc2C)c1

47.9
20.4
11.2
2.34

----------
- EXPERIMENT DESCRIPTION: in vitro
- CONDITION LABEL: mouse, microsomes, pH 7.4, MLM CLint, mouse liver microsomes
MEASURED PARAMETER: log10(microsomal CLint at 0.5 μM) (log10 of the value in µL/min/mg)
Note the log scale: values are log10 of microsomal CLint at 0.5 μM expressed in µL/min/mg.

# batch size: 7; output log10(microsomal CLint at 0.5 μM) per entry
1. CCN(Cc1ccccc1)S(=O)(=O)c1ccccc1
2. O=S(=O)(c1cc(F)ccc1F)N(Cc1ccccc1)C(CO)CO
3. COc1ccc(OC)c(S(=O)(=O)N2CCC(c3ccccc3)CC2)c1
4. CCN(Cc1ccccc1)S(=O)(=O)c1cc(Cl)ccc1OC
5. COc1ccc(OC)c(S(=O)(=O)N(Cc2ccc(F)cc2)Cc2ncccn2)c1
6. Cn1cccc(S(=O)(=O)N(Cc2ccc(F)cc2)Cc2ccc(F)cc2)c1=O
7. COc1ncccc1S(=O)(=O)N(Cc1ccc(F)cc1)Cc1ccc(F)cc1

3.07
1.99
2.82
3.10
2.93
2.80
3.07

Okay, here is my list. What is log10(microsomal CLint at 0.5 μM) for each of these?
1. COc1ccc(Cl)cc1S(=O)(=O)N(Cc1ccccc1)Cc1ccccc1
2. COC(=O)[C@H](CO)NS(=O)(=O)c1cc(Cl)ccc1OC

1: 3.13; 2: 2.36

----------
- Test system: Leishmania infantum MHOM/MA(BE)/67/ITMAP263 intracellular amastigotes
- EXPERIMENT DESCRIPTION: microbe, parasite or virus in culture
- CONDITION LABEL: Macrophage, in Mus musculus, read-out: L. Inf. pIC50, from L. infantum intracellular amastigote IC50 (converted)
MEASURED PARAMETER: log10 IC50 (log10 of the value in µM)
Units before log transform: µM; reported quantity: IC50; transform: log10.

Some entries whose results are on file:
COMPOUND: COCCN(Cc1ccccc1)S(=O)(=O)c1cc(C(=O)NC2COC2)ccc1OC
log10 IC50: 1.19
--
COMPOUND: COc1ccc(C(=O)N2CCOCC2)cc1S(=O)(=O)N(Cc1ccccc1)CC(C)(C)C
log10 IC50: 0.00
--
COMPOUND: COc1ccc(Cl)cc1S(=O)(=O)N(Cc1ccccc1)CC(O)c1ccc(F)cc1 (centres unmarked)
log10 IC50: 1.08

Report log10 IC50 for every entry below.
1. CC[C@H](Cc1ccccc1)[S+]([O-])c1ccccc1OC (some centres unmarked)
2. CNC(=O)c1ccc(OC)c(S(=O)(=O)N(Cc2ccccc2)Cc2ccccc2)c1
3. COc1ccc(S(C)(=O)=O)cc1S(=O)(=O)N(Cc1ccccc1)CC(C)(C)C
4. [2H]C([2H])([2H])Oc1ncccc1S(=O)(=O)N(Cc1ccc(F)cc1)Cc1ccc(F)cc1
5. COc1ccc(OC)c(S(=O)(=O)N(Cc2ccc(F)cc2)c2ccc(F)cn2)c1

1. 1.72
2. -0.15
3. 0.43
4. 1.51
5. 1.62

Batch lookup, log10 IC50 per entry.
1. COc1ccc(CN(Cc2ccc(F)cc2)S(=O)(=O)c2cc(F)ccc2OCCN(C)C)cc1
2. COc1cc2c(cc1S(=O)(=O)N(Cc1ccccc1)Cc1ccccc1)S(=O)(=O)NCN2
3. COc1ccc(Cl)cc1S(=O)(=O)N(CCN(C)C)Cc1ccccc1
4. COc1ccc(OC)c(S(=O)(=O)N(Cc2ccc(F)cc2)c2ccc(F)cc2)c1
5. O=S1(=O)NCNc2cc(Cl)c(S(=O)(=O)N(Cc3ccccc3)Cc3ccccc3)cc21
6. CCCCOc1ncccc1S(=O)(=O)NCc1ccc(F)cc1
7. CCN(Cc1ccccc1)S(=O)(=O)c1cc(Cl)ccc1OC

1. 0.51
2. 0.40
3. 0.79
4. 1.05
5. 0.11
6. 0.94
7. 0.74

----------
Exercise: for every item that follows, state its recorded IC50.
- Tested on: Leishmania infantum MHOM/MA(BE)/67/ITMAP263 intracellular amastigotes
- EXPERIMENT DESCRIPTION: microbe, parasite or virus in culture
- CONDITION LABEL: Macrophage, in Mus musculus, read-out: L. infantum MHOM/MA(BE)/67/ITMAP263 intracellular amastigotes IC50, intracellular amastigotes
Answers are plain numbers, in µM.

MOLECULE SMILES: COc1ccc(S(C)(=O)=O)cc1S(=O)(=O)N(Cc1ccc(F)cc1)Cc1ccc(F)cc1
IC50 (µM): 1.28

MOLECULE SMILES: COc1ccc(C#N)cc1S(=O)(=O)N(Cc1ccc(F)cc1)Cc1oc(C)nc1C
IC50 (µM): 7.89

MOLECULE SMILES: CN(C)CCN(Cc1ccccc1)S(=O)(=O)c1ccccc1OC(F)(F)F
IC50 (µM): 8.64

Given item O=S1(=O)c2ccccc2[C@H](O)[C@H](Cc2ccccc2)N1Cc1ccccc1 , the value recorded as its IC50 is 13.5

----------
- EXPERIMENT DESCRIPTION: in vitro
- CONDITION LABEL: human, microsomes, pH 7.4, HLM CLint, human liver microsomes
MEASURED PARAMETER: log10 of microsomal CLint at 0.5 μM (log10 of the value in µL/min/mg)
All values: base-10 log of microsomal CLint at 0.5 μM in µL/min/mg.

Consider the following illustrative entries.
COMPOUND: CCN(Cc1ccccc1)S(=O)(=O)c1ccc(C)cc1 [DNDI0003297129]
log10 of microsomal CLint at 0.5 μM: 3.24
//
COMPOUND: COc1ccc(OC)c(S(=O)(=O)N(Cc2ccc(F)cc2)Cc2ncccn2)c1 [DNDI0003370419]
log10 of microsomal CLint at 0.5 μM: 2.06
//
COMPOUND: O=S1(=O)c2cc(F)ccc2OC(c2ccc(F)cc2)CN1Cc1ccccc1 (centres unmarked) [DNDI0003371160]
log10 of microsomal CLint at 0.5 μM: 2.60
//
COMPOUND: COc1ccc(OC)c(S(=O)(=O)N(Cc2ncccn2)Cc2ncccn2)c1 [DNDI0003370115]
log10 of microsomal CLint at 0.5 μM: 1.23
//
COMPOUND: COC(=O)[C@H](CO)NS(=O)(=O)c1cc(Cl)ccc1OC [DNDI0003369004]
log10 of microsomal CLint at 0.5 μM: 2.05

Can you give me log10 of microsomal CLint at 0.5 μM for all of these, one by one?
1. COc1ccc(OC)c(S(=O)(=O)N(Cc2ccc(F)cc2)Cc2oc(C)nc2C)c1 [DNDI0003370420]
2. O=S(=O)(NC(CO)Cc1ccccc1)c1ccccc1Br (centres unmarked) [DNDI0003369449]
3. CC(=O)Nc1ccc(S(=O)(=O)N(CCN(C)C)Cc2ccccc2)cc1 [DNDI0003366091]

1: 2.58; 2: 2.39; 3: 1.98

Could I get log10 of microsomal CLint at 0.5 μM for every one of these entries?
1. O=c1[nH]cccc1S(=O)(=O)N(Cc1ccc(F)cc1)Cc1ccc(F)cc1 [DNDI0003371165]
2. CCN(Cc1ccccc1)S(=O)(=O)c1ccccc1OC(F)(F)F [DNDI0003364252]
3. O=S(=O)(NCc1ccc(F)cc1)c1cccnc1NCCN1CCOCC1 [DNDI0003369121]

1.64
3.07
3.27

List the reported log10 of microsomal CLint at 0.5 μM of each compound below.
1. COc1ncccc1S(=O)(=O)N(Cc1ccccc1)Cc1ccccc1 [DNDI0003368299]
2. CCN(Cc1ccccc1)S(=O)(=O)c1ccc(OC)cc1 [DNDI0003297130]
3. Cn1cccc(S(=O)(=O)N(Cc2ccc(F)cc2)Cc2ccc(F)cc2)c1=O [DNDI0003371168]
4. COc1ccc(C(=O)N2CCCC2)cc1S(=O)(=O)N(Cc1ccccc1)Cc1ccccc1 [DNDI0003368297]
5. COCCN(C(C)=O)c1ccc(S(=O)(=O)N(CCOC)Cc2ccccc2)cc1 [DNDI0003366101]

2.93
2.83
2.35
2.90
1.86

Need log10 of microsomal CLint at 0.5 μM for each of these compounds.
1. COc1ccc(OC)c(S(=O)(=O)N(Cc2ccc(F)cc2)Cc2ccccn2)c1 [DNDI0003368394]
2. COc1ccc(CN2CCCC2)cc1S(=O)(=O)N(Cc1ccc(F)cc1)Cc1ccc(F)cc1 [DNDI0003370114]
3. CCCCCOc1cc(C)c(Cl)cc1S(=O)(=O)NCc1cccs1 [DNDI0002572712]
4. COc1ccc(OC)c(S(=O)(=O)N(CCO)Cc2ccccc2)c1 [DNDI0003366067]
5. COc1ccc(OC)c(S(=O)(=O)N2CCC(c3ccccc3)CC2)c1 [DNDI0003370422]
6. COc1ccc([S+](C)[O-])cc1S(=O)(=O)N(Cc1ccccc1)Cc1ccccc1 (centres unmarked) [DNDI0003578382]
7. COc1ccc(Cl)cc1S(=O)(=O)N(Cc1ccccc1)OC [DNDI0003364476]

1: 2.18; 2: 1.79; 3: 2.84; 4: 2.21; 5: 3.21; 6: 2.10; 7: 2.42

Sourced from paper PMC8126888
